Source listed as ChEMBL document CHEMBL1148672.

Test system: Nucleic Acid
Assay: Conversion of type 1 supercoiled DNA to type 2 nicked DNA
Type: nucleic-acid assay
Design: concentration or dose not given beside the values
assay_endpoint: Activity

Report Activity for every entry below.
1. COc1cccc2c1C(=[N+]=[N-])c1ccccc1-2
2. [N-]=[N+]=c1c2c(=O)ccc(=O)c=2c2ccccc12
3. CC(=O)O[C@@H]1c2c(c3c(=O)c4cccc(O)c4c(=O)c=3c2=[N+]=[N-])[C@H](O)[C@@H](OC(C)=O)[C@]1(C)O

Result:
["11%", "< 5%", "< 5%"]

###

Tested on: Nucleic Acid
Experiment: Cleavage of supercoiled DNA plasmid pBR322 after 2 days
Type: nucleic-acid assay
Activity calls are given as the source filed them. The rule behind the calls is not given here.
assay_endpoint: Activity

INSERT INTO measurements (smi, tgt, experimental_result) VALUES
  ('COc1cccc2c1C(=O)c1ccccc1-2', 'Nucleic Acid', 'inactive'),
  ('CC(=O)O[C@@H]1c2c(c3c(=O)c4cccc(O)c4c(=O)c=3c2=[N+]=[N-])[C@H](O)[C@@H](OC(C)=O)[C@]1(C)O', 'Nucleic Acid', 'inactive'),
  ('Nc1cccc2c1-c1ccccc1C2=O', 'Nucleic Acid', 'inactive');
